- Assay method text: liver-stage malaria parasite growth inhibition, primary screen, cell-based, HepG2, luciferase luminescence, HepG2 viability (AID 624349);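 note: 100% = mean of DMSO negative control wells on the same plate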
- Experimental conditions: P. berghei liver stage in HepG2, luciferase luminescence, concentration not given here; measured here: HepG2 viability without parasites
Readout label: viability (%)
API: value field is a number in %; no unit string.

Example compounds with recorded viability:
Compound	Value unit	Recorded measurement
C=CCN1CC[C@]23c4c5ccc(O)c4O[C@H]2/C(=N/N=C2\CC[C@@]4(O)[C@H]6Cc7ccc(O)c8c7[C@@]4(CCN6CC=C)[C@H]2O8)CC[C@@]3(O)[C@H]1C5	%	59
O=C1OCCN1N=Cc1ccc([N+](=O)[O-])o1	%	103
O=C1NC(=O)c2c1c1c3ccccc3n3c1c1c2c2ccccc2n1C1CCC3O1	%	60.2
COc1ccc2c(c1)C13CCCC[C@@H]1C(C2)N(C)CC3 (stereo partly drawn)	%	74
CC(C)=CC1C(C(=O)OCc2cccc(Oc3ccccc3)c2)C1(C)C (stereo not drawn)	%	88.5

Now, please, on to the next compound.
For the compound shown here, `NC(N)=NOCC[C@@H](N)C(=O)O` , give the reported viability.
75.6

* * *

- Assay method text: sensitizers of A549 cells to miR-34 induction, primary screen, imaging, A549 dox-inducible miR-34, nuclei and caspase counts (AID 1347080)
- Experimental conditions: A549 miR-34 inducible, Hoechst nuclei count, 48 h; measured here: total cells with miR-34 induction; stronger effect = lower value
Param label: returns condition met when cell count < 8000, returns condition not met otherwise, including exact equality.

Compound	Class
[N-]=[N+]=CC(=O)OCC(N)C(=O)O (stereo not drawn)	condition met

Is 8000 strictly greater than the compound's reported cell count? compound: `CC(=O)[C@H]1CC[C@H]2[C@@H]3CC[C@H]4C[C@](C)(O)CC[C@]4(C)[C@H]3CC[C@]12C`
condition not met

I'd appreciate it if you could check whether C[C@]12CCC3c4ccc(OC(=O)N(CCCl)CCCl)cc4CCC3C1CC[C@@H]2O (stereo partly drawn) has cell count smaller than 8000.
condition met

Find out if reported cell count for Nc1ncnc2c1ncn2[C@@H]1O[C@H](COP(=O)(O)CP(=O)(O)OP(=O)(O)O)[C@H](O)C1O (stereo partly drawn) is less than 8000
condition not met

Dear colleague, could you confirm whether cell count of `C[C@H](CCC(=O)O)C[C@H](C)C[C@H](C)C(=O)/C=C(\O)[C@H](C)C[C@H](C)C/C=C/[C@@H](C)[C@@H](O)[C@@H](C)[C@@H](O)C[C@@H]1CC[C@@](C)([C@H]2CC[C@@](C)([C@@H](C)O)O2)O1` falls below 8000? Thanks.
condition met

Lab log: compare recorded cell count with 8000; is it strictly lower for `C=CCN1C[C@@H](C)N([C@H](c2ccc(C(=O)N(CC)CC)cc2)c2cccc(OC)c2)C[C@@H]1C` ?
condition not met

* * *

- Assay method text: ovarian cancer cell viability with rucaparib, profiling panel, oncology-focused library, rucaparib conditional (AID 1508598)
- Experimental conditions: patient-derived ovarian cancer cells, CellTiter-Glo viability, 144 h; at 0.0781 µM; OCI-P5x cells; without rucaparib; stronger effect = lower value
# key: entry, value: viability
# unit: % | format: bare number

Answered cases to consult:
Cc1sc2c(c1C)C(c1ccc(Cl)cc1)=N[C@@H](CC(N)=O)c1nnc(C)n1-2 77.6
C/C(=C\c1csc(C)n1)[C@H]1C[C@@H]2O[C@]2(C)CCC[C@H](C)[C@H](O)[C@@H](C)C(=O)C(C)(C)[C@H](O)CC(=O)O1 16.3
CC(C)[C@@]12O[C@@H]1[C@@H]1O[C@]13[C@]1(O[C@@H]1C[C@@H]1C4=C(CC[C@@]13C)C(=O)OC4)[C@@H]2O 9.41

Please find the next compound below.
Returns the measured viability for the input compound. Input: `C/C(=C\c1csc(C)n1)[C@H]1C[C@@H]2O[C@@H]2CCC[C@H](C)[C@H](O)[C@@H](C)C(=O)C(C)(C)[C@H](O)CC(=O)O1`
17.9

* * *

- Assay method text: growth inhibition of CRL1545 osteosarcoma cells, cell-based, cisplatin and BGB IC20 combos (AID 1671464);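 note: cells exposed to compound for 96 hours before readout; 0% = vehicle DMSO and 100% = high DMSO killing control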
- Experimental conditions: single agent, at 0.05 µM, stronger effect = higher value
Listing of entries alongside the reported inhibition.
# include the unit after the value

Examples with answers:
Compound	inhibition
Cn1c(COP(=O)(NCCBr)NCCBr)cnc1[N+](=O)[O-]	-14%
CC1(C)C(C(=O)Nc2ccc(S(=O)(=O)c3ccc(NC(=O)C4C(C)(C)C4(C)C)cc3)cc2)C1(C)C	-37.3%
NC(Cc1ccc(N(CCCl)CCCl)cc1)C(=O)O (centres undefined)	-31.8%
Cc1c2ccncc2c(C)c2c1[nH]c1ccccc12	-12.4%
O=P(O)(NCCCl)NCCCl	-55%

Given `CN(C)NC(=O)CCC(=O)O` , state its recorded inhibition.
-6.7%

Value lookup for inhibition; key = `CCC1(c2ccccc2)C(=O)NC(=O)NC1=O`
8.97%

Look at this compound and give its reported inhibition. `O=C(O)CCCc1ccc(N(CCCl)CCCl)cc1`
15.9%

Quick one: inhibition for `O=C1CCC[C@@H]2[C@H]3CCCN4CCC[C@@H](CN12)[C@@H]34` ?
-32.9%

* * *

- Assay method text: growth inhibition of DIPG glioma cells, dose response, cell-based, SU-DIPG-XIII, MIPE5.0, CellTiter-Glo, qHTS (AID 1347064);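 for AC50: cells exposed to compound for 48 hours before the viability read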
- Experimental conditions: SU-DIPG-XIII viability, CellTiter-Glo ATP luminescence
Records with an inconclusive call do not appear. Activity calls are given as the source filed them. Cut-off not given; nearly all actives show AC50 up to about 23 µM.
A correct response names exactly one class from yes = active, no = inactive

Molecule	Class
CN1C(=O)COc2c(C(=O)NC3CN4CCC3CC4)cc(Cl)cc21 (stereo not drawn)	no
C/C(=C\c1csc(C)n1)[C@@H]1C[C@@H]2O[C@]2(C)CCC[C@H](C)[C@H](O)[C@@H](C)C(=O)C(C)(C)[C@@H](O)CC(=O)O1	no
COC(=O)[C@]12CCC(C)(C)C[C@H]1[C@H]1C(=O)C=C3[C@@]4(C)C=C(C#N)C(=O)C(C)(C)[C@@H]4CC[C@@]3(C)[C@]1(C)CC2	yes
Cc1ccccc1-n1c(Cn2cnc3c(N)ncnc32)nc2cccc(C)c2c1=O	no
COc1ccc(N(C(=O)Oc2c(C)cccc2C)c2ccnc(Nc3ccc(N4CCN(C)CC4)cc3)n2)c(OC)c1	yes
O=C1CC[C@@]2(O)[C@H]3Cc4ccc(O)c5c4[C@@]2(CCN3CC2CC2)[C@H]1O5	no
CN(C)[C@@H]1C(=O)C(C(N)=O)=C(O)[C@@]2(O)C(=O)C3=C(O)c4c(O)cccc4[C@@](C)(O)[C@H]3[C@H](O)[C@@H]12	no
CN1C(=O)CCS(=O)(=O)C1c1ccc(Cl)cc1 (stereo not drawn)	no

Hey, what did the test say about `CN(C)NC(=O)CCC(=O)O` ?
no

Look up the recorded call for `C=C1C[C@@H]2[C@H](CC[C@]3(C)C(=O)CC[C@@H]23)[C@@]2(C)C=CC(=O)C=C12` in this test.
no

Dear colleague, could you share the recorded outcome for `CC(C)(O)/C=C\C(=O)[C@](C)(O)[C@H]1[C@H](O)C[C@]2(C)[C@@H]3CC=C4[C@@H](C=C(O)C(=O)C4(C)C)[C@]3(C)C(=O)C[C@@]12C` when you have a moment?
yes

* * *

Listing of entries alongside the reported fold change.
- Assay method text: sensitizers of A549 cells to miR-34 induction, primary screen, imaging, A549 dox-inducible miR-34, nuclei and caspase counts (AID 1347080)
- Experimental conditions: A549 miR-34 inducible, Hoechst nuclei count, 48 h; measured here: relative caspase fold change +Dox/-Dox
Just the number, please, no unit after it.

Example entries and their recorded answers appear below.
Compound	Readout label	Recorded measurement
N[C@@H](CC(=O)N1CCn2c(nnc2C(F)(F)F)C1)Cc1cc(F)c(F)cc1F	fold change	5.09
O=C1CN=C(c2ccccc2)c2cc([N+](=O)[O-])ccc2N1	fold change	1.76
C[C@H](N)Cc1cnc[nH]1	fold change	1.13
Cc1cc(C)cc(C(=O)OC2CC3CCC(C2)N3C)c1 (centres undefined)	fold change	1.01
O=C1C=CC(=O)C=C1	fold change	1.65

// lookup fold change for C[C@H]1O[C@@H](OC2CC[C@]3(C=O)[C@H]4CC[C@]5(C)[C@@H](C6=CC(=O)OC6)CC[C@]5(O)[C@@H]4CC[C@]3(O)C2)C[C@H](O)[C@@H]1O (some centres undefined)
1.73

Name the recorded fold change for c1cc2c(cc1C1OC[C@H]3C(c4ccc5c(c4)OCO5)OC[C@H]13)OCO2 (some centres undefined) .
0.861

Requested read-out: fold change. Entry: `CCN1C[C@]2(COC)CC[C@H](OC)[C@@]34C1[C@]1(OCO[C@@]15C[C@H](OC)[C@H]1C[C@@H]3[C@@H]5[C@H]1OC)[C@@H](O)[C@H]24`
1.35

For the compound CC(C)(C)NCC(O)COc1cccc2[nH]c(C#N)cc12 (centres undefined) , what fold change is on record?
1.8

So what's the measured fold change for this one? `CCCCC/C=C\C/C=C\C/C=C\C/C=C\CCCC(=O)NC[C@@H](C)O`
0.786

Any idea what fold change was measured for C[C@]12CCC3[C@@H](CC[C@@H]4C[C@H](O)CC[C@]34C)[C@@H]1CCC2=O (some centres undefined) ?
1.16

# input compound: `COc1cc(-n2c(=S)[nH]c3ccccc3c2=O)c(Cl)cc1Cl` ; wanted: its fold change
0.323

Item `O=[N+]([O-])c1ccc2nc(N3CCNCC3)ccc2c1` has what recorded fold change?
1.56

I have this compound here, `CCCN1CCO[C@@H]2c3cc(O)ccc3OC[C@@H]21` , and I need its recorded fold change.
0.482

// fold change lookup, key: `CN1CC[C@@]2(C)c3cc(OC(=O)Nc4ccccc4)ccc3N(C)[C@@H]12`
1.22

Recorded fold change for `CC(=O)O[C@H]1C[C@H](O[C@H]2[C@@H](O)C[C@H](O[C@H]3[C@@H](O)C[C@H](O[C@H]4CC[C@@]5(C)[C@H](CC[C@]6(C)[C@]5(C)C[C@@H](O)[C@]5(C)[C@@H](C7=CC(=O)OC7)CC[C@@]56O)C4)O[C@@H]3C)O[C@@H]2C)O[C@H](C)[C@H]1O[C@@H]1O[C@H](CO)[C@@H](O)[C@H](O)[C@H]1O` , please?
1.14

# get_value(readout='fold change', item= Oc1ccc2c3c1OC1[C@@H](O)CC[C@@]4(O)[C@@H](C2)N(CC2CCC2)CC[C@]314 (some centres undefined) )
2.83

Data request, read-out fold change, for `CNC(=O)Oc1ccccc1OC(C)C`
0.908

Item C[C@]12CC3SC3C[C@@H]1CC[C@@H]1[C@@H]2CC[C@]2(C)[C@@H](O)CC[C@@H]12 (some centres undefined) has what recorded fold change?
0.52
